- Tested on: GRK7
- COND: concentration: 1 μM, replicates: in singlicate; n = 1;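 also: KINOMEscan kinase panel screen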
MEASURE NAME: %Inh (%)

CCc1nc(-c2cccc(N(C)S(=O)(=O)c3ccccc3)c2)c(-c2ccnc(Nc3ccc(N4CCN(C(C)=O)CC4)nc3)n2)s1 :: 0
NC(=O)c1sc(-n2cnc3ccccc32)cc1OCc1ccccc1F :: 0
Cl.c1ccc(Cn2ccc3cc(Nc4ncnc5ccccc45)ccc32)cc1 :: 0
Nc1nc(-c2cccnc2)c(-c2ccnc3ccccc23)s1 :: 0
COC(=O)c1c(-c2ccccc2)c2cc(Cl)ccc2c(=O)n1Cc1ccc(S(C)(=O)=O)cc1 :: 15
CNc1nccc(-c2c(-c3ccc(F)cc3)ncn2CCCN2CCOCC2)n1 :: 0
Nc1nc(-c2ccc3c(N)n[nH]c3c2)cc(N2CCC[C@@H](C(=O)Nc3ccccc3)C2)n1.O=C(O)C(F)(F)F.O=C(O)C(F)(F)F :: 0
C[C@H]1CC[C@@H](C(=O)Nc2ccccc2)CN1c1cc(-c2ccc3c(N)n[nH]c3c2)nc(N)n1 :: 0
Nc1nc(-c2ccccn2)c(-c2ccnc3ccccc23)s1 :: 0
Clc1ccc(-c2cc(-c3c[nH]nc3-c3ccccn3)ccn2)cc1 :: 0
CCn1c(-c2ccncc2)nc2cnccc21 :: 24
COc1ccc(NC(=O)Nc2ccc(C)c(-c3ccc(C(=O)Nc4ccncc4)cc3)c2)cc1 :: 0
Nc1nccc2scc(-c3ccc4c(c3)CCN4C(=O)Cc3cc(F)ccc3F)c12 :: 0
Fc1cccc(COc2ccc(Nc3ncnc4cc[nH]c34)cc2Cl)c1 :: 23
O=C(Nc1ccccc1F)NC1CCN(c2ccnc(Nc3ccc(F)cc3)n2)C1 (stereo not drawn) :: 0
Fc1cccc(COc2ccc(Nc3ncnc4sc(-c5ccc[nH]5)cc34)cc2Cl)c1 :: 0
FC(F)(F)c1cc(Nc2nccc(-c3c(-c4ccc(Cl)cc4)nn4ncccc34)n2)ccc1Cl :: 0
O=C(Nc1ccccc1)Nc1ccc(Oc2ccc3nccn3n2)cc1 :: 0

* * *

- System: PLK4
- COND: concentration: 1 μM, replicates: in singlicate; n = 1
Below, each of the compounds is paired with its reported %Inh value.
MEASURE NAME: %Inh (%)

COC(=O)c1c(-c2ccccc2)c2cc(Cl)ccc2c(=O)n1Cc1ccc(S(C)(=O)=O)cc1 :: 26
N#Cc1ccc(Oc2ccc(Nc3ncnc4cc[nH]c34)cc2Cl)cc1 :: 21
CC(C)(C)c1ccc(-n2cnc3c(N)ncnc32)cc1 [SKF-97263] :: 0
Cc1cccc(-c2nc(Nc3ccc4[nH]nnc4c3)c3ccccc3n2)n1 [GW867587] :: 0
O=C(Nc1ccccc1)Nc1ccc(Oc2ccc3nccn3n2)cc1 :: 0

* * *

- Tested on: MLK2
- COND: concentration: 1 μM, replicates: in singlicate; n = 1
MEASURE NAME: %Inh

Fc1cccc(COc2ccc(Nc3ncnc4sc(-c5ccc[nH]5)cc34)cc2Cl)c1 :: 0%
CN1c2ccc(-c3ccc(C(=O)NCCO)cc3)cc2-c2[nH]ncc2S1(=O)=O :: 27%
NC(=O)c1sc(-n2cnc3ccccc32)cc1OCc1ccccc1F :: 0%
CCc1nc(-c2cccc(N(C)S(=O)(=O)c3ccccc3)c2)c(-c2ccnc(Nc3ccc(N4CCN(C(C)=O)CC4)nc3)n2)s1 :: 0%
CCc1nc(-c2cccc(C)c2)c(-c2ccnc(NC(=O)c3ccccc3)c2)s1 :: 16%
